Property: Kd; scope: individual binders
Molecular target: T1, recombinant human sc-uPA (human, UniProt P00749 21-431)
T1 construct: 411 amino acid single-chain zymogen expressed in HEK293; the 20-residue signal peptide is not present in the mature protein; also called human single-chain uPA; pro-uPA
Test: SPR, mAb immobilised
Field: numeric (nM). Do not append units.

Examples with their reported Kd follow.
binder | measure_unit | Kd
rec0266-0000-0010-VL_S91K (antibody, mouse IgG1, name in Kabat numbering, V domains shown) VH: DVKLVESGGGLVKPGGSLKLSCVASGFTFSSYTMSWVRQTPEKRLEWVATISGGGSHIYYADSVKGRFTISRDNAKNTLYLQMSSLKSEDTAIYYCTRDGRDGSWFAYWGQGTLVTVSA VL: DIVMTQSPATLSVTPGDRVSLSCRTSQSIGDYLHWYQQKSHESPRLLIKYVSQSISGIPSRFSGSGSGSDFTLSINSVESEDVGVYYCQNKHSFPLTFGSGTKLELKR | nM | 3.2
rec0266-0000-0010-VL_N90G (antibody, mouse IgG1, name in Kabat numbering, V domains shown) VH: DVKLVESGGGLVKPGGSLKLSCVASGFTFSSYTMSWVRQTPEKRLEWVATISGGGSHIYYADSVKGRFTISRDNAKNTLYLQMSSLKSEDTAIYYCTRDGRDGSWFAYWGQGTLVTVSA VL: DIVMTQSPATLSVTPGDRVSLSCRTSQSIGDYLHWYQQKSHESPRLLIKYVSQSISGIPSRFSGSGSGSDFTLSINSVESEDVGVYYCQGSHSFPLTFGSGTKLELKR | nM | 0.68

Note: attention shifts to another entry.
Query string: State the recorded Kd for this entry: rec0266-0000-0010-VL_S91I (antibody, mouse IgG1, name in Kabat numbering, V domains shown) VH: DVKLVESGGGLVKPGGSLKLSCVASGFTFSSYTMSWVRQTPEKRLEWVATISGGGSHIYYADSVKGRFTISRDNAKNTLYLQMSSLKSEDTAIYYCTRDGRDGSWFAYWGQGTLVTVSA VL: DIVMTQSPATLSVTPGDRVSLSCRTSQSIGDYLHWYQQKSHESPRLLIKYVSQSISGIPSRFSGSGSGSDFTLSINSVESEDVGVYYCQNIHSFPLTFGSGTKLELKR
Result string: 2.9
